Target: Left-right determination factor 2 (Homo sapiens)
Experiment: small molecules binding LEFTY2 protein – biochemical, small-molecule microarray, 635 nm fluorescence scan, primary screen (AID 1110)
Conditions: higher = more signal
Tag: 1 (yes) if measured composite z-score is not below -0.4, 0 (no) if it is.

Some solved cases for reference:
Compound | Class Assignment
CCOC(=O)C[C@H]1[C@H](OC(=O)c2ccc(-c3ccccc3)cc2)[C@@H](NC(=O)c2ccccc2)c2cc(OCCCO)ccc2N1C(=O)Cc1ccc(OC)cc1 | 1 (yes)
CC1CC/C=C\[C@H]2OC34C=CCN(Cn5nnc6ccccc65)C(=O)[C@H]3N(CCCCCO)C(=O)[C@@H]4C2C(=O)O1 (some centres not stated) | 0 (no)
CC1CC/C=C\[C@H]2OC34C=CCN(Cc5ccccc5)C(=O)[C@H]3N(C(C)CO)C(=O)[C@@H]4C2C(=O)O1 (some centres not stated) | 1 (yes)
C=CCN(Cc1ccccc1)C(=O)C(c1cccs1)N(C(=O)/C=C\C(=O)O)c1ccc(CCOCCO)cc1 (configuration not stated) | 0 (no)
Cc1c(NC(=O)/C(C#N)=C/c2cccc([N+](=O)[O-])c2)c(=O)n(-c2ccccc2)n1C | 1 (yes)

// switching to the query compound
Ask: Reported composite z-score at or above -0.4? CN1CCC(CCCO)=CC1c1cccs1 (configuration not stated)
Result: 1 (yes)

###

Target: Epidermal growth factor receptor (Homo sapiens)
Assay: compounds binding epidermal growth factor receptor – biochemical, small-molecule microarray, 635 nm fluorescence, primary screen (AID 1104);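 note: score merges 667 nm emission intensity with spot signal to noise over triplicate slides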
Settings: EGFR binding, higher = more signal
Dear colleague, classification is by composite z-score, with ranges listed here: Low: < -0.4; Mid: ≥ -0.4 and < 0.3; High: ≥ 0.3

Some solved cases for reference:
Molecule | Assayed System | Class Assignment
C=C(CCCC)/C(=C/C[C@@H](OC(C)=O)c1ccccc1OCCO)c1cc(C(=O)OC)ccc1OC | Epidermal growth factor receptor (Homo sapiens) | Low
CCCNC(=O)[C@@]1(Sc2ccc(C)cc2)CC(=O)N(Cc2ccccc2C(F)(F)F)[C@@H]1c1ccc(CO)cc1I | Epidermal growth factor receptor (Homo sapiens) | Mid
NC(=O)[C@@H]1[C@H]2C(=O)O[C@H](c3ccccc3)[C@H](c3ccccc3)N2[C@H](c2ccc(OCCO)cc2)[C@@]12C(=O)Nc1ccc(C#CC3=CCCCC3)cc12 | Epidermal growth factor receptor (Homo sapiens) | High
CCOC(=O)C[C@H]1[C@H](OC(=O)c2cc3ccccc3oc2=O)[C@@H](NC(=O)CC(C)C)c2cc(OCCCO)ccc2N1C(=O)c1ccccc1 | Epidermal growth factor receptor (Homo sapiens) | High
O=C1NC(=O)C2C1C=CC(C(O)C=Cc1ccc([N+](=O)[O-])cc1)N2Nc1ccc(Cl)cc1Cl (centres undefined) | Epidermal growth factor receptor (Homo sapiens) | High
C=CCC(OC(C)=O)[C@@H]1[C@@H](N(Cc2cc3ccccc3o2)C(=O)Cc2ccc(OC)cc2)c2cc(OCCCO)ccc2N1C(=O)c1ccc2ccccc2c1 (some centres undefined) | Epidermal growth factor receptor (Homo sapiens) | Low
O=C1O[C@@H](c2ccccc2)[C@@H](c2ccccc2)N2[C@@H](c3ccccc3OCCO)[C@]3(C(=O)Nc4ccccc43)[C@@H](C(=O)O)[C@H]12 | Epidermal growth factor receptor (Homo sapiens) | Low
CC(C)(C)OC(=O)CC[C@]1(C(N)=O)N=C(c2ccc(OCCCO)cc2)O[C@H]1c1ccccc1 | Epidermal growth factor receptor (Homo sapiens) | Low

Ask: Into which category would you place `COC(=O)[C@@]1(Cc2ccccc2)[C@H]2c3cc(C(=O)N4CCCC4)n(Cc4ccc(O)c(OC)c4)c3C[C@H]2CN1C(=O)c1ccccc1` ?
Result: Low

Ask: Into which category would you place `COCCCNC(=O)[C@@]1(Cc2ccccc2CN=[N+]=[N-])N=C(c2ccc(OCCCO)cc2)O[C@H]1c1ccccc1CN=[N+]=[N-]` ?
Result: Mid

###

Attribute: composite z-score
Molecular target: Epidermal growth factor receptor (Homo sapiens)
Assay: compounds binding epidermal growth factor receptor – biochemical, small-molecule microarray, 635 nm fluorescence, primary screen (AID 1104);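 note: score merges 667 nm emission intensity with spot signal to noise over triplicate slides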
Details: EGFR binding, higher = more signal
Number only, no unit.

Previously resolved entries follow.
Compound | composite z-score
CCCC[C@H]1C[C@@H]1[C@@H]1N(P(=O)(c2ccccc2)c2ccccc2)C[C@@](O)(c2ccccc2)CC12CC2 | -0.678
C=CC[C@]1(C(N)=O)N=C(c2ccc(OCCCO)cc2)O[C@H]1c1ccccc1 | -1.03
O=C1OCCC/C=C\[C@H]2OC34C=CCN(c5ccc6ccccc6c5)C(=O)[C@H]3N(CCCCCO)C(=O)[C@@H]4C12 (some centres undefined) | -0.756

Kindly consider the entry below.
// field: composite z-score; key: `C=CCNC(=O)[C@@H]1[C@H]2C(=O)O[C@H](c3ccccc3)[C@H](c3ccccc3)N2[C@H](c2ccc(OCCO)cc2)[C@@]12C(=O)N(C(=O)OCCOC)c1ccc(C#CCNC(N)=O)cc12` ; value = 0.555

###

Assay: COS7 lysate on small-molecule microarray, probe aHis, 635 nm (AID 1123);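 note: z-score combines 667nm fluorescence intensity with signal-to-noise per printed compound spot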
Conditions: COS7 cell lysate, fluorescence, higher = more signal
Tag: true (1) if measured composite z-score is not below 0.5, false (0) if it is.

Some solved cases for reference:
Molecule | Class Assignment
C=C(CCCC)/C(=C/C[C@H](OC(=O)c1ccncc1)c1ccc(OCCO)cc1)c1cc(C(=O)OC)ccc1OC | true (1)
COc1ccc([Si](C)(C)[C@@H]2[C@@H](CC(=O)N3CCC[C@H]3CO)O[C@]3(C(=O)N(Cc4cccc(I)c4)c4ccccc43)[C@H]2C)cc1 | false (0)
O=C(O)C1N=C(c2ccc(OCCCO)cc2)N(c2ccccc2)O1 (stereo not given) | false (0)
COC(=O)[C@@]1(Cc2ccccc2)[C@H]2c3cc(C(=O)N(C)C)n(CCc4c[nH]c5ccc(O)cc45)c3C[C@H]2CN1C(=O)c1ccccc1 | true (1)
C=C(/C(=C/C[C@H](OC(C)=O)c1ccc(OCCO)cc1)c1cc(C(=O)OC)ccc1OC)C(C)C | true (1)

// switching to the query molecule
Ask: Reported composite z-score at or above 0.5? `Cc1ccc(S(=O)(=O)N2C[C@@H](C(=O)O)[C@H](Sc3ccccc3)C[C@H]2c2ccccc2)cc1`
Result: true (1)

###

Test: probe aLefty1 binding on compound microarray – biochemical, small-molecule microarray, 635/667 nm fluorescence, primary screen (AID 1153);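 note: score merges spot fluorescence with signal-to-noise ratio from the scanned slide images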
Settings: higher = more signal
Tag: met if measured composite z-score is not below -0.02, not met if it is.

Some solved cases for reference:
Molecule | Class Assignment
COc1ccc([Si](C)(C)[C@@H]2[C@@H](CCO)O[C@]3(C(=O)N(Cc4cccc(N5CCOC5=O)c4)c4ccccc43)[C@H]2C)cc1 | met
CCCC=C(CCC)[C@@H](NS(=O)(=O)c1ccc(Cl)cc1)c1ccc(C(=O)OC)cc1 | met
[N-]=[N+]=Nc1ccccc1[C@H]1OC(c2ccc(OCCCO)cc2)=N[C@@]1(CCS(=O)(=O)c1ccccc1)C(=O)NCc1ccccc1 | met
CCOC(=O)C1=CCC(c2ccc(F)cc2)N(S(=O)(=O)c2ccc(C)cc2)C1 (centres undefined) | not met

Ask: Reported composite z-score at or above -0.02? `CO[C@H]1O[C@H](CO)[C@@H](OC(=O)Nc2ccc(Oc3ccccc3)cc2)[C@H](OC(=O)Nc2ccc3c(c2)OCO3)[C@@H]1OC(=O)Nc1ccc2c(c1)OCO2`
Result: met

Ask: Reported composite z-score at or above -0.02? `[N-]=[N+]=Nc1ccccc1[C@H]1OC(c2ccc(OCCCO)cc2)=N[C@@]1(Cc1ccccc1)C(=O)N1CCOCC1`
Result: met

Ask: Reported composite z-score at or above -0.02? `COc1cc2c(cc1O)C=[N+](Cc1cc3c(cc1Br)OCO3)CC2`
Result: not met

Ask: Reported composite z-score at or above -0.02? `COCCCNC(=O)[C@]1(Cc2ccccc2)N=C(c2ccc(OCCCO)cc2)O[C@@H]1c1ccccc1CN=[N+]=[N-]`
Result: met

Ask: Reported composite z-score at or above -0.02? CCCCN1CC=CC23O[C@@H]4/C=C\CCCOC(=O)C4[C@H]2C(=O)N(CCCCCO)[C@@H]3C1=O (some centres undefined)
Result: not met

Ask: Reported composite z-score at or above -0.02? `C=C(CCCC)/C(=C/C[C@H](OC(C)=O)c1ccccc1OCCO)c1cnc2ccccc2c1`
Result: met

Ask: Reported composite z-score at or above -0.02? `COCCOC(=O)N1C(=O)[C@@]2(c3ccccc31)[C@H](C(=O)N1CCCCCCC1)[C@H]1C(=O)O[C@H](c3ccccc3)[C@H](c3ccccc3)N1[C@@H]2c1ccc(OCCO)cc1`
Result: met

Ask: Reported composite z-score at or above -0.02? `CCOC(=O)C[C@H]1[C@H](OC(=O)c2ccc(-c3ccccc3)cc2)[C@@H](NC(=O)c2ccccc2)c2cc(OCCCO)ccc2N1C(=O)Cc1ccc(OC)cc1`
Result: not met

Ask: Reported composite z-score at or above -0.02? O=C1NC(=O)C2C1C=CC(C(O)C1CC=CCC1)N2Nc1ccccn1 (centres undefined)
Result: met

Ask: Reported composite z-score at or above -0.02? CCCCCN1CC=CC23O[C@@H]4C=CCOC(=O)[C@@H]4[C@H]2C(=O)N(C(C)CO)[C@@H]3C1=O (some centres undefined)
Result: not met
